# assayed_system: HspB6 (Homo sapiens, UniProt O14558)
# Construct: recombinant wild type; small oligomers of 55-60 kDa (dimers and tetramers)
# Sequence (O14558 1-160): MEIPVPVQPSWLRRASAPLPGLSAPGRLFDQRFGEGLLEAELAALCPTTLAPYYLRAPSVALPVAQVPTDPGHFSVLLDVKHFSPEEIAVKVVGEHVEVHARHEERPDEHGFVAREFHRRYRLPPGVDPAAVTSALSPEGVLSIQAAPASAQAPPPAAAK
# method_summary: intrinsic tryptophan fluorescence titration
# experimental_conditions: read-out: Kdiss
pKd: −log10 of the molar value.
readout_type: pKd

query_smiles	assayed_system	endpoint_result
N=C(N)NCCC[C@H](N)C(=O)O	HspB6 (Homo sapiens, UniProt O14558)	2.00
